# maps each entry to its inhibition
targetEntity: Mannose-6-phosphate isomerase (Homo sapiens)
protocol: inhibitors of human PMI, primary screen, biochemical, fluorescence intensity, coupled assay (AID 1209);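 further: plate controls were DMSO vehicle for no effect and wells lacking substrate for full effect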
conditionLabel: purified PMI enzyme, at 20 µM, stronger effect = higher value
Among all 190,000 compounds or so, about 810 (0.43%) were called active. The sample holds actives, similar compounds and a random draw of the others, so the mix is not that of the screen.
Write the value in % as a bare number.

Observe how each entry below is paired with its result.
compound | recordedValue
CCCSc1cc(NCCOC(C)=O)c([N+](=O)[O-])c2nonc12 | 27.6
C/C(=N\NC(=O)CCc1c[nH]c2ccccc12)c1ccc([N+](=O)[O-])cc1 | 7.7
CCOC(=O)c1cnc(/N=C/N(C)C)s1 | 2.3
CCN(CC)S(=O)(=O)c1ccc(NC(=O)c2cc(-c3cccs3)nc3ccccc23)cc1 | -4.8
Cc1nnc(SCC(=O)Nc2ccc3c(c2)OCCO3)n1N | 11.3
COc1ccccc1/C=C/C(=O)Nc1cccc(S(=O)(=O)NC2=NCCCCC2)c1 | -3.7
N#Cc1cnn2ccc(-c3ccc4c(c3)CCC4)nc12 | 0.4
COc1cccc(-c2ccc(SCC(=O)NCCc3ccccc3)nn2)c1 | 1.9

## Task Requested field: inhibition. Item: `Cc1cc2c(cc1C)N(C(=O)CSc1nncn1C)C(C)(C)c1ssc(=S)c1-2`
## Result 10.4

* * *

targetEntity: Mannose-6-phosphate isomerase (Homo sapiens)
protocol: inhibitors of human PMI, primary screen, biochemical, fluorescence intensity, coupled assay (AID 1209);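 further: plate controls were DMSO vehicle for no effect and wells lacking substrate for full effect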
conditionLabel: purified PMI enzyme, at 20 µM, stronger effect = higher value
Screen size: about 190,000 compounds; about 810 (0.43%) were called active. This is one part of a sample in which actives are shown more often than they occur.
property: inhibition (%)
Write the value in % as a bare number.

compound | property | measurementUnit | recordedValue
O=C(/C=C/NNC(=O)c1ccc(Cl)cc1)c1ccccc1 | inhibition | % | -4.1

## Task State its inhibition on Mannose-6-phosphate isomerase (Homo sapiens): `CCc1cccc(CC)c1NC(=O)c1cc(CN2C(=O)c3ccccc3C2=O)ccc1OC`
## Result 3

## Task Then `COc1cc(C)nc(N2CCC(C(N)=O)CC2)n1` ?
## Result -2.7

## Task Then `Cc1ccc(-c2nc(N)s[n+]2-c2ccccc2)cc1` ?
## Result 106

## Task Then COc1cc2c(cc1OC)C1(Nc3c-2c(Cc2ccccc2)nn3-c2ccccc2)C(=O)Nc2ccccc21 (configuration not stated) ?
## Result 9.3

## Task Then `Cc1ccc(NCC(=O)N/N=C/c2c[nH]c3ccccc23)cc1` ?
## Result 0

## Task Then `Cc1ccc(-c2cc(-c3ccccc3)nc(Cl)n2)cc1` ?
## Result 16.6

## Task Then `O=C(Nc1cccn(Cc2cccc(F)c2)c1=O)NC1CCCCC1` ?
## Result 14.9

## Task Then `CCc1sc(C(=O)Nc2ccsc2C(=O)OC)cc1Br` ?
## Result -4.6

* * *

targetEntity: Mannose-6-phosphate isomerase (Homo sapiens)
protocol: inhibitors of human PMI, primary screen, biochemical, fluorescence intensity, coupled assay (AID 1209);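 further: plate controls were DMSO vehicle for no effect and wells lacking substrate for full effect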
conditionLabel: purified PMI enzyme, at 20 µM
Out of some 190,000 compounds screened, about 810 (0.43%) were called active. No stated cut-off is given here; in the data, active means inhibition above about 50%; inactive means the rest. The list comes from a sample in which actives are over-represented; it also holds close analogues and randomly drawn compounds.
Outcome field: choose from Y (active), N (inactive)

querySmiles | labelClass
CO[C@H]1C=CO[C@@]2(C)Oc3c(C)c(O)c4c(O)c(c(C=NN5CCN(C6CCCC6)CC5)c(O)c4c3C2=O)NC(=O)C(C)=CC=C[C@H](C)[C@H](O)[C@@H](C)[C@@H](O)[C@@H](C)[C@H](OC(C)=O)[C@@H]1C | Y

Next up:
## Task Could you kindly confirm the outcome this assay logged for `CO[C@H]1C=CO[C@@]2(C)Oc3c(C)c(O)c4c(O)c(c5c(nc6cc(C)ccn65)c4c3C2=O)NC(=O)C(C)=CC=C[C@H](C)[C@H](O)[C@@H](C)[C@@H](O)[C@@H](C)[C@H](OC(C)=O)[C@@H]1C` ?
## Result N
